species: Rattus norvegicus; assay: Open TG-GATES - Regimen: Daily Repeat; type: toxicity, organism-based, Sprague-Dawley; design: regimen Daily Repeat, gender Male, age 6 weeks; details: in vivo, po, 100 mg/kg, […], tissue Plasma, route gavage, dose level Low, time 28 day
metric name: DBIL (mg/dL)

>>> recorded_value("CNC(=C[N+](=O)[O-])NCCSCc1ccc(CN(C)C)o1")
0.094
>>> recorded_value("CCOc1ccc(NC(C)=O)cc1")
0.02
>>> recorded_value("CN/C(=N/CCSCc1nc[nH]c1C)NC#N")
0.1
>>> recorded_value("COC(=O)C1=C(C)NC(C)=C(C(=O)OC)C1c1ccccc1[N+](=O)[O-]")
0.012
>>> recorded_value("Cc1nnc2n1-c1ccc(Cl)cc1C(c1ccccc1Cl)=NC2")
0.01
>>> recorded_value("O=C(OC[C@H]1O[C@@H](OC(=O)c2cc(O)c(O)c(OC(=O)c3cc(O)c(O)c(O)c3)c2)[C@H](OC(=O)c2cc(O)c(O)c(OC(=O)c3cc(O)c(O)c(O)c3)c2)[C@@H](OC(=O)c2cc(O)c(O)c(OC(=O)c3cc(O)c(O)c(O)c3)c2)[C@@H]1OC(=O)c1cc(O)c(O)c(OC(=O)c2cc(O)c(O)c(O)c2)c1)c1cc(O)c(O)c(OC(=O)c2cc(O)c(O)c(O)c2)c1")
0.006

Values compiled from ChEMBL document CHEMBL3885861.
